Source of measurements: paper PMC8018184

Test: Cytotoxicity test on Vero cells (alamarBlue)
Assay type: cell-based, African green monkey
Conditions: chlorocebus sabaeus, Vero cells (kidney epithelial cell line); 72 h, alamarBlue; read-out: CC50 (50% cytotoxic concentration) on Vero cells
Protocol: Vero cells (kidney of African green monkey epithelial cell line) were cultured at 37 °C in the MEM liquid medium supplemented with 10% FBS (EuroClone SpA), 1% levoglutamine (EuroClone SpA), and 1% penicillin–streptomycin (EuroClone SpA). […] The cytotoxicity of the compounds was determined using mammalian kidney epithelial cells (Vero cell line) and human acute monocytic leukemia cell line (THP-1). […]
Measured endpoint: CC50 at 72 h (µM)

- Molecule: "CO[C@]1(C)OCC(c2ccccc2)(c2ccccc2)C[C@@H]1CNCCCn1ccnc1 (racemic)"
  Measured endpoint: "CC50 at 72 h"
  Unit abbrev: "µM"
  Reported: 42.3
- Molecule: "CO[C@]1(C)OCC(c2ccccc2)(c2ccccc2)C[C@@H]1COCc1cn(CCC[P+](c2ccccc2)(c2ccccc2)c2ccccc2)nn1.[Br-] (racemic)"
  Measured endpoint: "CC50 at 72 h"
  Unit abbrev: "µM"
  Reported: 92
- Molecule: "CCCCC1(CCCC)CO[C@@](C)(OC)[C@@H](CNCCCCNc2c3ccc(Cl)cc3nc3ccc(OC)cc23)C1 (racemic)"
  Measured endpoint: "CC50 at 72 h"
  Unit abbrev: "µM"
  Reported: 1.2
- Molecule: "CCCCC1(CCCC)CO[C@@](C)(OC)[C@@H](CNCCCn2ccnc2)C1 (racemic)"
  Measured endpoint: "CC50 at 72 h"
  Unit abbrev: "µM"
  Reported: 35.2
- Molecule: "CCCCC1(CCCC)C[C@H](CNCCCCNc2c3ccc(Cl)cc3nc3ccc(OC)cc23)[C@](C)(OC)OO1"
  Measured endpoint: "CC50 at 72 h"
  Unit abbrev: "µM"
  Reported: 1.3
- Molecule: "CO[C@]1(C)OOC(c2ccccc2)(c2ccccc2)C[C@@H]1CNCCCn1ccnc1"
  Measured endpoint: "CC50 at 72 h"
  Unit abbrev: "µM"
  Reported: 49
- Molecule: "CCCCC1(CCCC)C[C@H](CNCCCCNc2ccc([N+](=O)[O-])c3nonc23)[C@](C)(OC)OO1"
  Measured endpoint: "CC50 at 72 h"
  Unit abbrev: "µM"
  Reported: 12.1
- Molecule: "Br.CO[C@]1(C)OOC(c2ccccc2)(c2ccccc2)C[C@@H]1COCc1cn(CCC[P+](c2ccccc2)(c2ccccc2)c2ccccc2)nn1"
  Measured endpoint: "CC50 at 72 h"
  Unit abbrev: "µM"
  Reported: 238
- Molecule: "CCCCC1(CCCC)C[C@H](CNCCCn2ccnc2)[C@](C)(OC)OO1"
  Measured endpoint: "CC50 at 72 h"
  Unit abbrev: "µM"
  Reported: 72

* * *

Reported IC50 values follow for various molecules
system: L. donovani promastigotes; assay: Promastigote growth inhibition in the presence of an iron chelator (DFO or DFP), isobologram; type: cell-based, Leishmania donovani; conditions: Leishmania donovani; no DFO; read-out: IC50 against promastigotes, absence of DFO
Measured endpoint: IC50 (µM)

- Molecule: "CCCCC1(CCCC)CO[C@@](C)(OC)[C@@H](CNCCCn2ccnc2)C1 (racemic)"
  Measured endpoint: "IC50"
  Reported: 3.4
- Molecule: "CCCCC1(CCCC)C[C@H](CNCCCn2ccnc2)[C@](C)(OC)OO1"
  Measured endpoint: "IC50"
  Reported: 7.5
